System: L1210 leukemia ip in BDF1 mice, survival T/C
measurement.protocol: NCI In Vivo Anticancer Drug Screen. Data for tumor model L1210 Leukemia (intraperitoneal) in B6D2F1 (BDF1) mice
assay.setup: endpoint: mean survival time; dose: 50.0 mg/kg/injection; schedule: Q04DX002 (ip); vehicle: saline with Tween-80; higher = longer survival
Toxic doses and inconclusive results are not listed.
measurement.label: T/C

Take a look at these entries with their results.
- CC(C)=CCOC1=CC(=O)C(=O)c2ccccc21: 95 % of control
- COC(=O)C(Br)(Br)C(=O)OC: 101 % of control

// for each compound below, give its T/C
1. O=C(O)COc1ccc(Cl)cc1CC(=O)O
2. C=C1CC2(OC1=O)C(=O)N(C)c1ccc(I)cc12 (centres undefined)

["99 % of control", "97 % of control"]

Where these numbers come from: PubChem BioAssay AID248
